Each recorded value in this set is attributed to patent US20220177587A1.

Each entry below carries its recorded Relative Luciferase Units (RLU), CD80 Conc 5.0 nM.
# measured-on: CD28 (Homo sapiens, UniProt P10747)
# assay-method-text: Jurkat/IL2 + CHO/OKT3 +/- PD-L1 reporter assay: PD-L1-dependent CD28 costimulation
# Format: cell-based
# Parameters: host or cells: Jurkat cells expressing an IL-2-luciferase reporter
# test-parameters: Table E26; linker variants; Jurkat/IL2 + CHO/OKT3/PD-L1; 5.0 nM
value-type: Relative Luciferase Units (RLU), CD80 Conc 5.0 nM

molecule	unit-text	readout-number
E35D/D46V/M47L/V68M/L85Q/E88D (EAAAK)3 (protein, UniProt P33681 35-288, looked up, variant E35D D46V M47L V68M L85Q E88D, (EAAAK)3 linker) T-lymphocyte activation …: VIHVTKEVKEVATLSCGHNVSVEELAQTRIYWQKDKKMVLTMMSGVLNIWPEYKNRTIFDITNNLSIMILALRPSDEGTYECVVQKYDKDAFKREHLAEVTLSVKADFPTPSISDFEIPTSNIRRIICSTSGGFPEPHLSWLENGEELNAINTTVSQDPETELYAVSSKLDFNMTTNHSFMCLIKYGHLRVNQTFNWNTTKQEHFPDNLLPSWAITLISVNGIFVICCLTYCFAPRCRERRRNERLRRESVRPV	RLU	2046
E35D/M47V/N48K/V68M/K89N EAAAK (protein, UniProt P33681 35-288, looked up, variant E35D M47V N48K V68M K89N, EAAAK linker) T-lymphocyte activation …: VIHVTKEVKEVATLSCGHNVSVEELAQTRIYWQKDKKMVLTMMSGDVKIWPEYKNRTIFDITNNLSIMILALRPSDEGTYECVVLKYENDAFKREHLAEVTLSVKADFPTPSISDFEIPTSNIRRIICSTSGGFPEPHLSWLENGEELNAINTTVSQDPETELYAVSSKLDFNMTTNHSFMCLIKYGHLRVNQTFNWNTTKQEHFPDNLLPSWAITLISVNGIFVICCLTYCFAPRCRERRRNERLRRESVRPV	RLU	1707
E35D/M47V/N48K/V68M/K89N GS(G4S)3 (protein, UniProt P33681 35-288, looked up, variant E35D M47V N48K V68M K89N, GS(G4S)3 linker) T-lymphocyte activation …: VIHVTKEVKEVATLSCGHNVSVEELAQTRIYWQKDKKMVLTMMSGDVKIWPEYKNRTIFDITNNLSIMILALRPSDEGTYECVVLKYENDAFKREHLAEVTLSVKADFPTPSISDFEIPTSNIRRIICSTSGGFPEPHLSWLENGEELNAINTTVSQDPETELYAVSSKLDFNMTTNHSFMCLIKYGHLRVNQTFNWNTTKQEHFPDNLLPSWAITLISVNGIFVICCLTYCFAPRCRERRRNERLRRESVRPV	RLU	1400
E35D/M47V/N48K/V68M/K89N delta (protein) VIHVTKEVKEVATLSCGHNVSVEELAQTRIYWQKDKKMVLTMMSGDVKIWPEYKNRTIFDITNNLSIMILALRPSDEGTYECVVLKYENDAFKREHLAEVTLSVKTHTCPPCPAPEAEGAPSVFLFPPKPKDTLMISRTPEVTCVVVDVSHEDPEVKFNWYVDGVEVHNAKTKPREEQYNSTYRVVSVLTVLHQDWLNGKEYKCKVSNKALPAPIEKTISKAKGQPREPQVYTLPPSREEMTKNQVSLTCLVKGFYPSDIAVEWESNGQPENNYKTTPPVLDSDGSFFLYSKLTVDKSRWQQGNVFSCSVMHEALHNHYTQKSLSLSPG	RLU	1026
